Values compiled from patent US12162884B2.

Test: Solubility studies in water, FaSSIF, FeSSIF and FaSSGF (excess solids in 5 mL medium at 37° C., HPLC; pH, XRPD and NMR of remaining material)
Type: physicochemical
Details: pH of solubility sample, Water, 24 hours, pH meter
# label = condition met if pH >= 3 else condition not met

## Input // inclusive: pH at least 3? input: CC(C)c1cnn2c(N[C@@H]3CCc4[nH]c5ccccc5c4C3)nc(-c3cncc(F)c3)nc12.CCS(=O)(=O)O [Compound 1 Form B]
## Output condition met

## Input // inclusive: pH at least 3? input: CC(C)c1cnn2c(N[C@@H]3CCc4[nH]c5ccccc5c4C3)nc(-c3cncc(F)c3)nc12 [Compound 4 Form A]
## Output condition not met

## Input // inclusive: pH at least 3? input: CC(C)c1cnn2c(N[C@@H]3CCc4[nH]c5ccccc5c4C3)nc(-c3cncc(F)c3)nc12 [Compound 2 Form A]
## Output condition not met

## Input // inclusive: pH at least 3? input: CC(C)c1cnn2c(N[C@@H]3CCc4[nH]c5ccccc5c4C3)nc(-c3cncc(F)c3)nc12.CS(=O)(=O)O [Compound 3 Form B]
## Output condition not met

## Input // inclusive: pH at least 3? input: CC(C)c1cnn2c(N[C@@H]3CCc4[nH]c5ccccc5c4C3)nc(-c3cncc(F)c3)nc12 [Compound A Form B]
## Output condition met
